Biological target: α4β7 integrin (Homo sapiens (Human), UniProt P13612+P26010)
Sequence (P13612 34-1032): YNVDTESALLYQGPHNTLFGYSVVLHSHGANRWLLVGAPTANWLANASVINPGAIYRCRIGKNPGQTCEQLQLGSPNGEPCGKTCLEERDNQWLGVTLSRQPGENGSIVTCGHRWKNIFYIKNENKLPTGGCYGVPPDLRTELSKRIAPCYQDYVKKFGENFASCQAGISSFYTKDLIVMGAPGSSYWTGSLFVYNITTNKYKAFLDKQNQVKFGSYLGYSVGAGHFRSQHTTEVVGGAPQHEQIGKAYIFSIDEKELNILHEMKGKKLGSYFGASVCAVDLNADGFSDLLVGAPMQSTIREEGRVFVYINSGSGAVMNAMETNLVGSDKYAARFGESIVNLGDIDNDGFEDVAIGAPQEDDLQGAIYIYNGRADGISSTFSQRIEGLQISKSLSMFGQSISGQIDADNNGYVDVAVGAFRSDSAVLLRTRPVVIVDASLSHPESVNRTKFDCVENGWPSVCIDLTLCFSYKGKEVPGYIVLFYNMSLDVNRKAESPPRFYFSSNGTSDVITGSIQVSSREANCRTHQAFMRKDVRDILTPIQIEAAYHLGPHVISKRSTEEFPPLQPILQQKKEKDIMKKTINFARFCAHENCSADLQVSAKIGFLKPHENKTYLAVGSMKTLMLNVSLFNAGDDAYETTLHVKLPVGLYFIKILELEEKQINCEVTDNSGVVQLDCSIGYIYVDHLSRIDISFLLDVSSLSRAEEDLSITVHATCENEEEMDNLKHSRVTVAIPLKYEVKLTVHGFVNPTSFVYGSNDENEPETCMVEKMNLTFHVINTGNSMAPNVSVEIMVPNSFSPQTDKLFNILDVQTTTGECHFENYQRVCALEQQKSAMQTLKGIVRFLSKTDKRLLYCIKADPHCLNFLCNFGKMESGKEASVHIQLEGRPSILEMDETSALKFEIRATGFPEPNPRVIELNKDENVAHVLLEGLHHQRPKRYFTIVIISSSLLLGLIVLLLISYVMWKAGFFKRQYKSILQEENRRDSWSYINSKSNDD
Sequence (P26010 20-798): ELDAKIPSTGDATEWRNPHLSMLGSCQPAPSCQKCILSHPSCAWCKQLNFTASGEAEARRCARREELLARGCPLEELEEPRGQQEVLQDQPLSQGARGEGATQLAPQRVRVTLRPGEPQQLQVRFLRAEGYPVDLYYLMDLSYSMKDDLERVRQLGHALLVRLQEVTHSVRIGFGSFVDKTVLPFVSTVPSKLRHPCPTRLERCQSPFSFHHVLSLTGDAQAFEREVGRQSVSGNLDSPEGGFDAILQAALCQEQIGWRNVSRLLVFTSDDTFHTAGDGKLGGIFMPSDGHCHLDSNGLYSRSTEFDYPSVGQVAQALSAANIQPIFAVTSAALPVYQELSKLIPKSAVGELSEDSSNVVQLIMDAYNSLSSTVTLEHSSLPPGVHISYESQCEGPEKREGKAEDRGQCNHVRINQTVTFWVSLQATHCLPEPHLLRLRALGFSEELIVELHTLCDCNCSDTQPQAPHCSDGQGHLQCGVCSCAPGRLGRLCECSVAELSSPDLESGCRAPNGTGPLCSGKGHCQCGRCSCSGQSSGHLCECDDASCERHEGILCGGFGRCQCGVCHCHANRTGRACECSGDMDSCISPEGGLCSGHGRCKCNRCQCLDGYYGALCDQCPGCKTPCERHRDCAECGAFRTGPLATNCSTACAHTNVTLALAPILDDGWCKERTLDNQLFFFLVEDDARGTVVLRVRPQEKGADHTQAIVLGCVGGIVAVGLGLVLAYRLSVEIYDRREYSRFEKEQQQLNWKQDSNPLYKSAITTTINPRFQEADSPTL
Assay: MAdCAM-1/α4β7 integrin binding inhibitory activity evaluation test (RPMI-8866 cell adhesion to MAdCAM-1/Fc)
Format: cell-based
Settings: RPMI-8866 cells binding to recombinant mouse MAdCAM-1/Fc, no serum
pIC50: −log10 of the molar value.
Record criterion met whenever pIC50 is at 9 or higher; record criterion not met when lower.

Below are worked cases with known answers.
[[record]]
compound = "Cc1cc(-c2ccc(S(=O)(=O)Nc3cc(F)c(C(=O)N[C@@H](Cc4ccc(-n5c(=O)c6c(ncn6C)n(C)c5=O)cc4)C(=O)O)c(F)c3)cc2)ccn1"
classlabel = "criterion met"

[[record]]
compound = "Cn1cnc2c1c(=O)n(-c1ccc(C[C@H](NC(=O)c3c(F)cc(NS(=O)(=O)c4ccc(-c5ccncc5)cc4)cc3F)C(=O)O)cc1)c(=O)n2C"
classlabel = "criterion met"

[[record]]
compound = "Cn1c(=O)n(-c2ccc(C[C@H](NC(=O)c3c(F)cc(NS(=O)(=O)c4ccc(-n5nccn5)cc4)cc3F)C(=O)O)cc2)c(=O)c2ccncc21"
classlabel = "criterion met"


Does the compound `Cn1c(=O)n(-c2ccc(C[C@H](NC(=O)c3c(F)cc(NS(=O)(=O)c4ccc(-c5ccsc5)cc4)cc3F)C(=O)O)cc2)c(=O)c2ccncc21` have recorded pIC50 that is 9 or more?
criterion not met

Does the compound `Cn1c(=O)n(-c2ccc(C[C@H](NC(=O)c3c(F)cc(NS(=O)(=O)c4ccc(-c5nccs5)cn4)cc3F)C(=O)O)cc2)c(=O)c2ccncc21` have recorded pIC50 that is 9 or more?
criterion met

* * *

Target: α4β7 integrin (Homo sapiens (Human), UniProt P13612+P26010)
Assay: MAdCAM-1/α4β7 integrin binding inhibitory activity evaluation test in the presence of serum (2)
Format: cell-based
Details: RPMI-8866 cells binding to mouse MAdCAM-1/Fc, same manner as Test (3), read-out: α4β7 Rank of activity with serum added
measureName: IC50

[[record]]
compound = "CCc1ncc(-c2ccc(S(=O)(=O)Nc3cc(F)c(C(=O)N[C@@H](Cc4ccc(-n5c(=O)c6ccncc6n(C)c5=O)cn4)C(=O)O)cc3F)cc2)cn1"
experimentalresult = "50 to 200 nM"

[[record]]
compound = "CNCc1ccc(S(=O)(=O)Nc2ccc(C(=O)N[C@@H](Cc3ccc(-n4c(=O)c5ccncc5n(C)c4=O)cn3)C(=O)O)c(F)c2)cc1"
experimentalresult = "10 to 50 nM"

[[record]]
compound = "Cn1ccc(=O)n(-c2ccc(C[C@H](NC(=O)c3c(F)cc(NS(=O)(=O)c4ccc(C(=O)NCC5CCOCC5)cc4)cc3F)C(=O)O)cc2)c1=O"
experimentalresult = "≤ 10 nM"


Attention now shifts to the item below.
For this compound ( `Cn1c(=O)n(-c2ccc(C[C@H](NC(=O)c3c(F)cc(NS(=O)(=O)c4ccc(C(=O)NC(C)(C)C)cc4)cc3F)C(=O)O)cc2)c(=O)c2ccncc21` ), measured IC50 is ≤ 10 nM

* * *

Each entry below carries its recorded IC50.
Target: α4β7 integrin (Homo sapiens (Human), UniProt P13612+P26010)
Assay: MAdCAM-1/α4β7 integrin binding inhibitory activity evaluation test in the presence of serum (1)
Assay type: cell-based
Settings: RPMI-8866 cells binding to mouse MAdCAM-1/Fc, human serum at final concentration of 50%; read-out: α4β7 with serum added, IC50
Write the value in nM as a bare number.

Worked examples follow.
[[record]]
compound = "Cn1ccc(=O)n(-c2ccc(C[C@H](NC(=O)c3c(F)cc(NS(=O)(=O)c4ccc(-n5cncn5)cn4)cc3F)C(=O)O)cc2)c1=O [Example 56]"
measurename = "IC50"
experimentalresult = 5.4

[[record]]
compound = "Cn1c(=O)n(-c2ccc(C[C@H](NC(=O)c3c(F)cc(NS(=O)(=O)c4ccc(-n5ccnn5)cn4)cc3F)C(=O)O)cc2)c(=O)c2ccncc21 [Example 71]"
measurename = "IC50"
experimentalresult = 0.72

[[record]]
compound = "Cn1c(=O)n(-c2ccc(C[C@H](NC(=O)c3c(F)cc(NS(=O)(=O)c4ccc(-n5nccn5)cc4)cc3F)C(=O)O)cc2)c(=O)c2ccncc21 [Example 61]"
measurename = "IC50"
experimentalresult = 8.7

[[record]]
compound = "COc1ccc2c(c1)c(=O)n(-c1ccc(C[C@H](NC(=O)c3c(F)cc(NS(=O)(=O)c4ccc(-n5ccnn5)cc4)cc3F)C(=O)O)cc1)c(=O)n2C [Example 51]"
measurename = "IC50"
experimentalresult = 21

[[record]]
compound = "Cn1c(=O)n(-c2ccc(C[C@H](NC(=O)c3c(F)cc(NS(=O)(=O)c4ccc(-n5cccc5)cc4)cc3F)C(=O)O)cc2)c(=O)c2ccncc21 [Example 43]"
measurename = "IC50"
experimentalresult = 12


Attention now shifts to the item below.
Sample Cn1c(=O)n(-c2ccc(C[C@H](NC(=O)c3c(F)cc(NS(=O)(=O)c4ccc(-n5cncn5)cn4)cc3F)C(=O)O)cc2)c(=O)c2ccncc21 [Example 57] , system: α4β7 integrin (Homo sapiens (Human), UniProt P13612+P26010). Its IC50 is 1.5

* * *

Biological target: α4β1 integrin (Homo sapiens (Human), UniProt P05556+P13612)
Sequence (P13612 34-1032): as the sequence (P13612 34-1032) above
Sequence (P05556 21-798): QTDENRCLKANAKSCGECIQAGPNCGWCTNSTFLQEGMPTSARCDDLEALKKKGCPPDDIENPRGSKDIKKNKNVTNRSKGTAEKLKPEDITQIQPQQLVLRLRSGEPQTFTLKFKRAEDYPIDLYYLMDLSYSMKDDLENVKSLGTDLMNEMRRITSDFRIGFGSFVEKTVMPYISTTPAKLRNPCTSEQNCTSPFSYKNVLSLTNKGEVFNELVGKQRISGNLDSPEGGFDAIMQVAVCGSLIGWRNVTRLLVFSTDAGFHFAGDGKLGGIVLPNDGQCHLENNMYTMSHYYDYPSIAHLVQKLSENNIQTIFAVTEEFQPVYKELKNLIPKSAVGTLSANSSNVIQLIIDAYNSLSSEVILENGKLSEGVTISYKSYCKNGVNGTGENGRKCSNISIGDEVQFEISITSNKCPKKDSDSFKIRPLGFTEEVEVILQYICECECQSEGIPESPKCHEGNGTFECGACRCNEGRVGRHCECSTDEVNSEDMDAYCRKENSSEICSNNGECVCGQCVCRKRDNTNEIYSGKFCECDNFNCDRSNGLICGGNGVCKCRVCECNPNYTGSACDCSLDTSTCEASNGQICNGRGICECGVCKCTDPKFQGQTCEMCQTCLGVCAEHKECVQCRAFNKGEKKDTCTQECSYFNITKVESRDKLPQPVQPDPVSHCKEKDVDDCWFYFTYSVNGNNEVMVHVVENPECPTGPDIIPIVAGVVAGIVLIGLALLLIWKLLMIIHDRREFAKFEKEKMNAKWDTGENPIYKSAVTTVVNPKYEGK
Assay: VCAM-1/α4β1 integrin binding inhibitory activity evaluation test (Jurkat cell adhesion to VCAM-1/Fc)
Conditions: Jurkat cells binding to recombinant human VCAM-1/Fc
measureName: IC50 (nM)
Write the value in nM as a bare number.

[[record]]
compound = "Cn1c(=O)n(-c2ccc(C[C@H](NC(=O)c3c(F)cc(NS(=O)(=O)c4ccc(-c5ncccn5)cc4)cc3F)C(=O)O)cc2)c(=O)c2ccncc21 [Example 41]"
measurename = "IC50"
experimentalresult = 130

[[record]]
compound = "Cc1cc(-c2ccc(S(=O)(=O)Nc3cc(F)c(C(=O)N[C@@H](Cc4ccc(-n5c(=O)c6ccncc6n(C)c5=O)cc4)C(=O)O)c(F)c3)cc2)ccn1 [Example 49]"
measurename = "IC50"
experimentalresult = 330

[[record]]
compound = "Cn1ccc(=O)n(-c2ccc(C[C@H](NC(=O)c3c(F)cc(NS(=O)(=O)c4ccc(-n5ccnn5)cn4)cc3F)C(=O)O)cc2)c1=O [Example 73]"
measurename = "IC50"
experimentalresult = 410

[[record]]
compound = "Cn1c(=O)n(-c2ccc(C[C@H](NC(=O)c3c(F)cc(NS(=O)(=O)c4ccc(-c5ccsc5)cc4)cc3F)C(=O)O)cc2)c(=O)c2ccncc21 [Example 53]"
measurename = "IC50"
experimentalresult = 740


For this compound ( COc1ccc2c(c1)c(=O)n(-c1ccc(C[C@H](NC(=O)c3c(F)cc(NS(=O)(=O)c4ccc(-n5ccnn5)cc4)cc3F)C(=O)O)cc1)c(=O)n2C [Example 51] ), measured IC50 is 1500

For this compound ( Cn1c(=O)n(-c2ccc(C[C@H](NC(=O)c3ccc(NS(=O)(=O)c4ccncc4)cc3F)C(=O)O)cc2)c(=O)c2ccncc21 [Example 39] ), measured IC50 is 140

For this compound ( Cn1c(=O)n(-c2ccc(C[C@H](NC(=O)c3c(F)cc(NS(=O)(=O)c4ccc(-c5ncc[nH]5)cc4)cc3F)C(=O)O)cc2)c(=O)c2ccncc21 [Example 48] ), measured IC50 is 54

For this compound ( Cc1cnccc1-c1ccc(S(=O)(=O)Nc2cc(F)c(C(=O)N[C@@H](Cc3ccc(-n4c(=O)c5ccncc5n(C)c4=O)cc3)C(=O)O)c(F)c2)cc1 [Example 65] ), measured IC50 is 420

For this compound ( Cn1cnc2c1c(=O)n(-c1ccc(C[C@H](NC(=O)c3c(F)cc(NS(=O)(=O)c4ccc(-c5ccncc5)cc4)cc3F)C(=O)O)cc1)c(=O)n2C [Example 75] ), measured IC50 is 310

For this compound ( Cn1c(=O)n(-c2ccc(C[C@H](NC(=O)c3c(F)cc(NS(=O)(=O)c4ccc(-n5cccn5)cc4)cc3F)C(=O)O)cc2)c(=O)c2ccncc21 [Example 62] ), measured IC50 is 100

For this compound ( Cn1c(=O)n(-c2ccc(C[C@H](NC(=O)c3c(F)cc(NS(=O)(=O)c4ccc(-n5ccnn5)cn4)cc3F)C(=O)O)cc2)c(=O)c2ccncc21 [Example 71] ), measured IC50 is 22

* * *

Molecular target: α4β7 integrin (Homo sapiens (Human), UniProt P13612+P26010)
Assay: MAdCAM-1/α4β7 integrin binding inhibitory activity evaluation test (RPMI-8866 cell adhesion to MAdCAM-1/Fc)
Assay type: cell-based
Settings: IC50 in VCAM-1/α4β1 test divided by IC50 in MAdCAM-1/α4β7 test
Experimental: The ability of test substances to inhibit the binding of a human B cell line, RPMI-8866, which is known to express α4β7 integrin, to MAdCAM-1 was measured. […] To each well, 30 μL of Stop Solution (Promega, CytoTox 96 Non-Radioactive Cytotoxicity Assay) was added, and the absorbance at 490 nm was measured by using a plate reader. Here, by the obtained absorbance, the activity of the lactate dehydrogenase (LDH) dissolved into the supernatant of each well was detected. […]
Record Satisfied whenever Selectivity is at 500 or higher; record Not satisfied when lower.

[[record]]
compound = "Cn1ccc(=O)n(-c2ccc(C[C@H](NC(=O)c3c(F)cc(NS(=O)(=O)c4ccc(-n5ccnn5)cn4)cc3F)C(=O)O)cc2)c1=O [Example 73]"
classlabel = "Not satisfied"


Does the compound Cn1ccc(=O)n(-c2ccc(C[C@H](NC(=O)c3c(F)cc(NS(=O)(=O)c4ccc(-n5cncn5)cn4)cc3F)C(=O)O)cc2)c1=O [Example 56] have recorded Selectivity that is 500 or more?
Not satisfied

Does the compound Cn1ccc(=O)n(-c2ccc(C[C@H](NC(=O)c3c(F)cc(NS(=O)(=O)c4ccc(-n5cccc5)cc4)cc3F)C(=O)O)cc2)c1=O [Example 64] have recorded Selectivity that is 500 or more?
Satisfied

Does the compound COc1ccc2c(c1)c(=O)n(-c1ccc(C[C@H](NC(=O)c3c(F)cc(NS(=O)(=O)c4ccc(C(=O)NC5CC5)cc4)cc3F)C(=O)O)cc1)c(=O)n2C [Example 78] have recorded Selectivity that is 500 or more?
Not satisfied

Does the compound Cn1ccc(=O)n(-c2ccc(C[C@H](NC(=O)c3c(F)cc(NS(=O)(=O)c4ccc(-c5cncnc5)cc4)cc3F)C(=O)O)cc2)c1=O [Example 60] have recorded Selectivity that is 500 or more?
Satisfied

Where do the numbers come from? From patent US9533985B2.
